Where do these numbers come from? They come from patent US20120165319A1.

target: ICE (Homo sapiens); assay: Enzyme assay with UV-visible substrate (visible ICE assay, Succinyl-Tyr-Val-Ala-Asp-pNitroanilide); assay type: biochemical; conditions: Table 5
Sequence (P29466 120-297 limits assumed): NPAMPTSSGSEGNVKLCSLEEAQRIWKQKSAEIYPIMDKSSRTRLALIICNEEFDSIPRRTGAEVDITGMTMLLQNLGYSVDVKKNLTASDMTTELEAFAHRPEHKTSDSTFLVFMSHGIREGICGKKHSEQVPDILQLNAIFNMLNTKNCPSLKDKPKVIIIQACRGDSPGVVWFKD
Sequence (P29466 317-404 limits assumed): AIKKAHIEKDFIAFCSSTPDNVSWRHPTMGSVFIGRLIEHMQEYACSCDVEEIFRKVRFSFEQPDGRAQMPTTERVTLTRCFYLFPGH
measured-quantity: log10(Ki) (log10 of the value in nM)
In our notation, the value equals log10 of Ki in nM.

Below are worked cases with known answers.
Cc1c(Cl)cccc1C(=O)N[C@H]1CCC(=O)N2CCC[C@@H](C(=O)N[C@H](C=O)CC(=O)O)N2C1=O    0.48
O=C[C@H](CC(=O)O)NC(=O)[C@@H]1CCCN2C(=O)CC[C@H](NC(=O)c3ccccc3Cl)C(=O)N12    0.60
Nc1cc2ccccc2cc1C(=O)N[C@H]1CCC(=O)N2CCC[C@@H](C(=O)N[C@H](C=O)CC(=O)O)N2C1=O    0.36
COCC(=O)N1C[C@H](NC(=O)c2ccccc2)C(=O)N(CC(=O)N[C@H](C=O)CC(=O)O)c2ccccc21 [Compound 605e]    1.46
CCS(=O)(=O)N[C@H]1CCC(=O)N2CCC[C@@H](C(=O)N[C@H](C=O)CC(=O)O)N2C1=O    2.30

Please state log10(Ki) for every compound in the list that follows.
1. COCC(=O)N1C[C@H](NC(=O)c2cccc3ccccc23)C(=O)N(CC(=O)N[C@H](C=O)CC(=O)O)c2ccccc21
2. O=C[C@H](CC(=O)O)NC(=O)[C@@H]1CCCN2C(=O)CC[C@H](NC(=O)c3ccc(Cl)c(Cl)c3)C(=O)N12

[0.95, 0.40]
